- Test system: PC3 (prostate carcinoma)
- ASSAY NAME: MTT anticancer activity
- Type: cell-based
- TEST SETTINGS: Homo sapiens, 48 h, read-out: IC50 PC3
pIC50: −log10 of the molar value.
# key: entry, value: pIC50
PARAMETER: pIC50

COMPOUND STRUCTURE: Cc1ccc(-n2c3c(c(O)cc2=O)C(=O)CCC3)cc1
MEASUREMENT: 3.62
//
COMPOUND STRUCTURE: O=C1CCCc2c1c(O)cc(=O)n2-c1ccc(F)cc1
MEASUREMENT: 4.18
//
COMPOUND STRUCTURE: O=C1CCCc2c1c(O)cc(=O)n2-c1ccccc1
MEASUREMENT: 3.82
//
COMPOUND STRUCTURE: COc1ccccc1-n1c2c(c(O)cc1=O)C(=O)CCC2
MEASUREMENT: 4.35
//
COMPOUND STRUCTURE: O=C1CCCc2c1c(O)cc(=O)n2-c1ccc(Cl)cc1
MEASUREMENT: 3.60
//
COMPOUND STRUCTURE: CC1(C)CC(=O)c2c(O)cc(=O)n(Cc3ccccc3)c2C1
MEASUREMENT: 4.54
//
COMPOUND STRUCTURE: CC1(C)CC(=O)c2c(O)cc(=O)n(-c3ccccc3)c2C1
MEASUREMENT: 4.02
//
COMPOUND STRUCTURE: COc1ccc(-n2c3c(c(O)cc2=O)C(=O)CC(C)(C)C3)cc1
MEASUREMENT: 4.47
//
COMPOUND STRUCTURE: CC1(C)CC(=O)c2c(O)cc(=O)n(-c3ccc(F)cc3)c2C1
MEASUREMENT: 4.53
//
COMPOUND STRUCTURE: COc1ccccc1-n1c2c(c(O)cc1=O)C(=O)CC(C)(C)C2
MEASUREMENT: 4.36
